Catalogue of Liver Microsome Stability-% Left after 30 min w/ NADPH (%) Rat readings, one per entry.
Assay: In Vitro Microsome Stability Assay (rat)
Format: in vitro ADME
Details: rat, 30 min, NADPH
Counter-ions that a name gives are not always drawn.
Hi! Could you send only the number? It should be in %, unit omitted.

Sample answers from the record:
>  <compound>
C[C@H]1CN(S(=O)(=O)c2ccc(N(C)C)cc2)CCCN(CC2CCCCC2)CCCN(S(=O)(=O)N2CCN(c3ccccc3F)CC2)C1

>  <endpoint_unit>
%

>  <reported_measurement>
45.5

$$$$
>  <compound>
CN(C)c1ccc(S(=O)(=O)N2CCCN(CC3CCCCC3)CCCN(S(=O)(=O)N3CCC(c4ccccc4)CC3)C/C(=N/O)C2)cc1

>  <endpoint_unit>
%

>  <reported_measurement>
7.54

$$$$
>  <compound>
CC1CCCN(S(=O)(=O)N2CCCN(CC3CCCCC3)CCCN(S(=O)(=O)c3ccc(N(C)C)cc3)CC3(CC3)C2)C1 (centres unmarked)

>  <endpoint_unit>
%

>  <reported_measurement>
0.62

$$$$
>  <compound>
CN(C)c1ccc(S(=O)(=O)N2CCCN(CC3CCCCC3)CCCN(S(=O)(=O)N3CCC(O)CC3)CC3(CC3)C2)cc1

>  <endpoint_unit>
%

>  <reported_measurement>
0.14

$$$$
>  <compound>
C=C1CN(S(=O)(=O)c2ccc(N(C)C)cc2)CCCN(CC2CCCCC2)CCCN(S(=O)(=O)N(C)C)C1

>  <endpoint_unit>
%

>  <reported_measurement>
2.62

$$$$

Problem: So what's the measured Liver Microsome Stability-% Left after 30 min w/ NADPH (%) Rat for this one? CC1CN(S(=O)(=O)c2ccc(N(C)C)cc2)CCCN(CC2CCCCC2)CCCN(S(=O)(=O)N2CCC(c3ccccc3)CC2)C1 (centres unmarked) [A44, hydrochloride]
Solution: 54

Problem: Any idea what its Liver Microsome Stability-% Left after 30 min w/ NADPH (%) Rat is? The compound is `CN(C)c1ccc(S(=O)(=O)N2CCCN(CC3CCCCC3)CCCN(S(=O)(=O)N3CCCC3)CC3(CC3)C2)cc1`
Solution: 0.13

Problem: What value of Liver Microsome Stability-% Left after 30 min w/ NADPH (%) Rat has been recorded for this entry: `C=C1CN(S(=O)(=O)c2ccc(N(C)C)cc2)CCCN(CC2CCCCC2)CCCN(S(=O)(=O)N2CCc3c(Cl)cccc3C2)C1`
Solution: 42.4

Problem: For the compound shown here, `C=C1CN(S(=O)(=O)c2ccc(N(C)C)cc2)CCCN(CC2CCCCC2)CCCN(S(=O)(=O)N2CCc3ccc(Cl)cc3C2)C1` , give the reported Liver Microsome Stability-% Left after 30 min w/ NADPH (%) Rat.
Solution: 40.1

Problem: Quick one: Liver Microsome Stability-% Left after 30 min w/ NADPH (%) Rat of C=C1CN(S(=O)(=O)c2ccc(C)cc2)CCCN(CC2CCC(C)(C)CC2)CCCN(S(=O)(=O)c2ccc(N(C)C)cc2)C1 [A10, hydrochloride] ?
Solution: 8.85

Problem: Sample CN(C)c1ccc(S(=O)(=O)N2CCCN(CC3CCCCC3)CCCN(S(=O)(=O)N3CCC(c4ccccc4)CC3)CC(O)C2)cc1 (centres unmarked) — what was its Liver Microsome Stability-% Left after 30 min w/ NADPH (%) Rat?
Solution: 0.97

Problem: So what does the record say about Liver Microsome Stability-% Left after 30 min w/ NADPH (%) Rat for `C=C1CN(S(=O)(=O)c2ccc(C)cc2)CCCN(CC2CCCCC2)CCCN(S(=O)(=O)c2ccc(OC)cc2)C1` ?
Solution: 0.37

Problem: Any idea what its Liver Microsome Stability-% Left after 30 min w/ NADPH (%) Rat is? The compound is `C[C@H]1CN(S(=O)(=O)c2ccc(N(C)C)cc2)CCCN(CC2CCCCC2)CCCN(S(=O)(=O)N2CCc3cc(Cl)ccc3C2)C1`
Solution: 43.6

Problem: Param item = O=S(=O)(N1CCCCC1)N1CCCN(Cc2ccccc2)CCCN(S(=O)(=O)N2CCCCC2)CC2(CC2)C1 [A18, hydrochloride] ; retrieve measured Liver Microsome Stability-% Left after 30 min w/ NADPH (%) Rat.
Solution: 0.11

Problem: For the compound `Cc1cc(N(C)C)ccc1S(=O)(=O)N1CCCN(CC2CCCCC2)CCCN(S(=O)(=O)N2CCCCC2)CC2(CC2)C1` , what Liver Microsome Stability-% Left after 30 min w/ NADPH (%) Rat is on record?
Solution: 0.28

Problem: Given the compound `C=C1CN(S(=O)(=O)c2ccc(N(C)C)cc2)CCCN(CC2CCCCC2)CCCN(S(=O)(=O)N2CC=C(c3cccc(Cl)c3)CC2)C1` , what is its reported Liver Microsome Stability-% Left after 30 min w/ NADPH (%) Rat?
Solution: 74.3

Problem: Find the recorded Liver Microsome Stability-% Left after 30 min w/ NADPH (%) Rat belonging to `CN(C)c1ccc(S(=O)(=O)N2CCCN(CC3CCCCC3)CCCN(S(=O)(=O)N3CCC(C)(C)CC3)CC3(CC3)C2)cc1` and report it.
Solution: 1.84

Problem: Record request: Liver Microsome Stability-% Left after 30 min w/ NADPH (%) Rat value, item `C=C1CN(S(=O)(=O)c2ccc(C)cc2)CCCN(CC2CCCCC2)CCCN(S(=O)(=O)c2ccc(N(C)C)cc2)C1`
Solution: 1.17

Problem: Fill blank: measured Liver Microsome Stability-% Left after 30 min w/ NADPH (%) Rat of the compound `C=C1CN(S(=O)(=O)c2ccc(N(C)C)cc2)CCCN(CC2CCCCC2)CCCN(S(=O)(=O)N2CCC(C3CCCCC3)CC2)C1` is ____.
Solution: 78

Problem: Fill in: Liver Microsome Stability-% Left after 30 min w/ NADPH (%) Rat of `C=C1CN(S(=O)(=O)c2ccc(N(C)C)cc2)CCCN(CC2CCCCC2)CCCN(S(=O)(=O)N2CCc3cc(OC)ccc3C2)C1` is ___
Solution: 17.2

Problem: Param item = `O=C(c1ccc(Cl)cc1)N1CCCN(S(=O)(=O)N2CCCCC2)CC2(CC2)CN(S(=O)(=O)N2CCCCC2)CCC1` ; retrieve measured Liver Microsome Stability-% Left after 30 min w/ NADPH (%) Rat.
Solution: 0.04

Problem: Returns the measured Liver Microsome Stability-% Left after 30 min w/ NADPH (%) Rat for the input compound. Input: `C=C1CN(S(=O)(=O)c2ccc(N(C)C)cc2)CCCN(CC2CCCCC2)CCCN(S(=O)(=O)N2CCCCC2)C1`
Solution: 0.1

Problem: Data request, read-out Liver Microsome Stability-% Left after 30 min w/ NADPH (%) Rat, for `C=C1CN(S(=O)(=O)c2ccc(N(C)C)cc2F)CCCN(CC2CCCCC2)CCCN(S(=O)(=O)N2CCc3cc(Cl)ccc3C2)C1`
Solution: 57.3

----------
Assay: In Vitro Microsome Stability Assay (mouse)
Assay type: in vitro ADME
Settings: mouse liver microsomes, 30 min w/ NADPH
readout_type: Liver Microsome Stability-% Left after 30 min w/ NADPH (%) Mouse
# unit: % | format: bare number

Problem: // lookup Liver Microsome Stability-% Left after 30 min w/ NADPH (%) Mouse for `COc1ccccc1N1CCN(S(=O)(=O)N2CCCN(CC3CCCCC3)CCCN(S(=O)(=O)c3ccc(N(C)C)cc3)C[C@H](C)C2)CC1`
Solution: 17.5

Problem: If you can, please state the reported Liver Microsome Stability-% Left after 30 min w/ NADPH (%) Mouse value of `COc1cc(F)cc(N2CCN(S(=O)(=O)N3CCCN(CC4CCCCC4)CCCN(S(=O)(=O)c4ccc(N(C)C)cc4)C[C@H](C)C3)C[C@@H]2C)c1` .
Solution: 68.5

Problem: Query (compound): `COc1cc(F)ccc1N1CCN(S(=O)(=O)N2CCCN([C@@H](C)C3CCCCC3)CCCN(S(=O)(=O)c3ccc(N(C)C)cc3)C[C@H](C)C2)CC1` ; field requested: Liver Microsome Stability-% Left after 30 min w/ NADPH (%) Mouse
Solution: 80.3

----------
Experiment: In Vitro Microsome Stability Assay (rat)
Type: in vitro ADME
Conditions: rat, 30 min, NADPH
readout_type: Liver Microsome Stability-% Left after 30 min w/ NADPH (%) Rat
The response must be a number in % with no trailing unit.

Problem: Could you share which Liver Microsome Stability-% Left after 30 min w/ NADPH (%) Rat value was measured for `C=C1CN(S(=O)(=O)c2c(F)cc(N(C)C)cc2F)CCCN(CC2CCCCC2)CCCN(S(=O)(=O)N2CCC(c3ccccc3)CC2)C1` ?
Solution: 39.9

Problem: Which measured Liver Microsome Stability-% Left after 30 min w/ NADPH (%) Rat value corresponds to `C=C1CN(S(=O)(=O)c2ccc(N(C)C)cc2)CCCN(CC2CCCCC2)CCCN(S(=O)(=O)N2CCC(Oc3ccccc3)CC2)C1` ?
Solution: 13.5

Problem: Endpoint output: Liver Microsome Stability-% Left after 30 min w/ NADPH (%) Rat of `C=C1CN(S(=O)(=O)c2ccc(N(C)C)cc2)CCCN(CC2CCCCC2)CCCN(S(=O)(=O)N2CCN(c3cccc(Cl)c3)CC2)C1` . Value?
Solution: 67.3

Problem: Can you share its Liver Microsome Stability-% Left after 30 min w/ NADPH (%) Rat? I mean this compound: `C=C1CN(S(=O)(=O)CC)CCCN(CC2CCCCC2)CCCN(S(=O)(=O)c2ccc(C)cc2)C1`
Solution: 0.17

Problem: What measured Liver Microsome Stability-% Left after 30 min w/ NADPH (%) Rat goes with `C[C@H]1CN(S(=O)(=O)c2ccc(N(C)C)cc2)CCCN(CC2CCCCC2)CCCN(S(=O)(=O)N2CCN(c3cccc(F)c3)CC2)C1` ?
Solution: 43.1

Problem: GET /values?readout=Liver Microsome Stability-% Left after 30 min w/ NADPH (%) Rat&item= `C=C1CN(S(=O)(=O)c2ccc(N(C)C)cc2)CCCN(CC2CCCCC2)CCCN(S(=O)(=O)N2CCN(c3ccccc3)[C@@H](C)C2)C1`
Solution: 10.7

Problem: Liver Microsome Stability-% Left after 30 min w/ NADPH (%) Rat for `C[C@H]1CN(S(=O)(=O)c2ccc(N(C)C)cc2)CCCN(CC2CCCCC2)CCCN(S(=O)(=O)N2CC[C@H](c3ccccc3)C2)C1` ?
Solution: 21.6

Problem: For the compound shown here, `C=C1CN(S(=O)(=O)c2ccc(C)cc2)CCCN(CC2CCCCC2)CCCN(S(=O)(=O)c2ccc(C)cc2)C1` , give the reported Liver Microsome Stability-% Left after 30 min w/ NADPH (%) Rat.
Solution: 0.59

Problem: Suppose we examine the compound `COC1CCN(S(=O)(=O)N2CCCN(CC3CCCCC3)CCCN(S(=O)(=O)c3ccc(N(C)C)cc3)CC3(CC3)C2)CC1` ; what Liver Microsome Stability-% Left after 30 min w/ NADPH (%) Rat value has been reported?
Solution: 0.98

Problem: # query: Liver Microsome Stability-% Left after 30 min w/ NADPH (%) Rat of entry `COc1ccccc1S(=O)(=O)N1CCCN(CC2CCCCC2)CCCN(S(=O)(=O)N2CCCCC2)CC2(CC2)C1`
Solution: 0.13

Problem: Please give the measured Liver Microsome Stability-% Left after 30 min w/ NADPH (%) Rat for this compound: `C=C1CN(S(=O)(=O)c2ccc(N(C)C)cc2)CCCN(CC2CCCCC2)CCCN(S(=O)(=O)N2CCc3ccccc3C2)C1`
Solution: 3.6

Problem: Consider the compound `C[C@H]1CN(S(=O)(=O)c2ccc(N(C)C)cc2)CCCN(CC2CCCCC2)CCCN(S(=O)(=O)N2CC[C@@H](c3ccccc3)C2)C1` and give its measured Liver Microsome Stability-% Left after 30 min w/ NADPH (%) Rat.
Solution: 20.2

Problem: Value lookup for Liver Microsome Stability-% Left after 30 min w/ NADPH (%) Rat; key = `Cc1ccc(S(=O)(=O)N2CCCN(CC3CCCCC3)CCCN(S(=O)(=O)c3ccc(N(C)C)cc3)CCC2)cc1`
Solution: 1.13

Problem: // Liver Microsome Stability-% Left after 30 min w/ NADPH (%) Rat lookup, key: `C=C1CN(S(=O)(=O)c2ccc(N(C)C)cc2)CCCN(CC2CCCCC2)CCCN(S(=O)(=O)N2CCc3cc(F)ccc3C2)C1`
Solution: 3.9

All values here come from patent US11578055B2.
